- ASSAYED TARGET: protein kinase C (PKC)
- ASSAY INFO: Reconstituted enzyme assay, PKC
- Type: biochemical, rat
- TEST SETTINGS: γ-[32P]-ATP, synthetic peptide substrate; read-out: IC50 PKC
Attribute: IC50

# input Look up IC50 for this molecule: COc1ccc(S(=O)(=O)N(CCO)c2ccccc2CN(C)C/C=C/c2ccc(Cl)cc2)cc1 [Compound 5, KN93, reference compound]
# output > 100 µM

Next up:
# input What IC50 value was documented for this molecule, N=c1cc2c(nn1CCCCCCCCCCC(=O)N1CCN(c3ncccn3)CC1)-c1ccccc1CC2 [MW01-070C] ?
# output > 100 µM

====

- ASSAYED TARGET: death associated protein kinase (DAPK) (Homo sapiens)
- Sequence (P53355 whole entry, species assumed): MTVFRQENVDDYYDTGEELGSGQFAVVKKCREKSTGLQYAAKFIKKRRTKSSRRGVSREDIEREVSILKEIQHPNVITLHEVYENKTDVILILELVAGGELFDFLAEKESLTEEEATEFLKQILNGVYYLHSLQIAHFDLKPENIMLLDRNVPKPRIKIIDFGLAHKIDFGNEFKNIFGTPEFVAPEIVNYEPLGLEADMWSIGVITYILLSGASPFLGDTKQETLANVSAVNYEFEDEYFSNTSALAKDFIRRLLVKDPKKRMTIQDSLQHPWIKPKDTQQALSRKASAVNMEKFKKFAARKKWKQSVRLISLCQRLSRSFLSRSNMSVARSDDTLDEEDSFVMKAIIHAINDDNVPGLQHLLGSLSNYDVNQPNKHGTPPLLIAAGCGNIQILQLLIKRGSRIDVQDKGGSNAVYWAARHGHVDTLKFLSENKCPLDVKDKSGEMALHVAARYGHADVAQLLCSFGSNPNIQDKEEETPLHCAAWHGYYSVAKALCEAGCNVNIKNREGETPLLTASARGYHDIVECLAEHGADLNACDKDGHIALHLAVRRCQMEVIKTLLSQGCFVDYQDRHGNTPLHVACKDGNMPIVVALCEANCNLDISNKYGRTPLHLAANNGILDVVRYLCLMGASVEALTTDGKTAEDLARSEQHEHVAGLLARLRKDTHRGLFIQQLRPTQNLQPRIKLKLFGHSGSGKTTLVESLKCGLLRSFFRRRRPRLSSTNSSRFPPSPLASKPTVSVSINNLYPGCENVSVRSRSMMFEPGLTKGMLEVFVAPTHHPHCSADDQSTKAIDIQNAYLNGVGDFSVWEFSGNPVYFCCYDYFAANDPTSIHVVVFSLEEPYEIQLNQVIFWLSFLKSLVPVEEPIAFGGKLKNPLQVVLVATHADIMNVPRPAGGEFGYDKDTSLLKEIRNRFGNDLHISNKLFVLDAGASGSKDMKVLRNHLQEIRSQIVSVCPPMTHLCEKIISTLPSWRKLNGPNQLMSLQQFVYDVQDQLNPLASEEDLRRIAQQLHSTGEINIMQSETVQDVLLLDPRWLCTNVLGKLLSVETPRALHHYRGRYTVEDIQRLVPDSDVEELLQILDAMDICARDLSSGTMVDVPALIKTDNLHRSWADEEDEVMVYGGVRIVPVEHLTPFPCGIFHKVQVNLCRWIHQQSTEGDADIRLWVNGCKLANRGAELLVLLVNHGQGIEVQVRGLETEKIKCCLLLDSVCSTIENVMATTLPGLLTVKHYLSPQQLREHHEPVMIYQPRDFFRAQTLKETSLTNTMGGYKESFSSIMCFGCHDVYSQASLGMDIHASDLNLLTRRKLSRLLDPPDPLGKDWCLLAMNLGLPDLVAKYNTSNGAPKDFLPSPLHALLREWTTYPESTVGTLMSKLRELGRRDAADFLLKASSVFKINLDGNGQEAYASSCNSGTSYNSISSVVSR
- ASSAY INFO: Enzyme assay, DAPK
- Format: biochemical
- TEST SETTINGS: Table 6; read-out: Inhibition DAPK
pIC50: −log10 of the molar value.
Consider the following compounds and their measured pIC50 readings.

# count of solved cases: 5
# input compound: Cc1cc(NC(=O)CCCCCCCCCCn2nc3c(cc2=N)CCc2ccccc2-3)nnc1-c1ccccc1 [MW01-008B] ; wanted: its pIC50
# output 4.00 to 4.30

# input Give its pIC50 value. Item: N=c1cc2c(nn1CCCCCCCC(=O)Nc1ccc(-c3ccccc3)nn1)-c1ccccc1CC2 [MW01-097B]
# output < 4.00

# input Please look up its pIC50: Cc1ccc(=N)n(CCCCCCCCCCC(=O)Nc2ccc(-c3ccccc3)nn2)n1 [MW01-031Z]
# output < 4.00

# input Which pIC50 reading was recorded for the compound Cc1cc(=N)n(CCCCCCCCCCC(=O)Nc2ccc(-c3ccccc3)nn2)nc1-c1ccccc1 [MW01-103B] ?
# output 4.00 to 4.30

# input Query: pIC50; subject: O=C(CCCCCCCCCNc1ccc(-c2ccccc2)nn1)Nc1ccc(-c2ccccc2)nn1 [MW01-038B]
# output < 4.00

***
# input Item N=c1cc2c(nn1CCCCCCCCCCC(=O)Nc1ccc(-c3ccccc3)nn1)-c1ccccc1CC2 [MW01-026Z] has what recorded pIC50?
# output > 4.70

# input Need pIC50 of Cc1ccc(NC(=O)CCCCCCCCCCn2nc3c(cc2=N)CCc2ccccc2-3)nn1 [MW01-020B] , thanks.
# output < 4.00

====

- ASSAYED TARGET: death associated protein kinase (DAPK) (Homo sapiens)
- ASSAY INFO: Enzyme assay, DAPK
- Type: biochemical
- TEST SETTINGS: Table 6; read-out: Inhibition DAPK
READOUT NAME: IC50

# input Value lookup for IC50; key = N=c1cc2c(nn1CCCCCCCCCCC(=O)Nc1cc3c(nn1)-c1ccccc1CC3)-c1ccccc1CC2 [MW01-055V]
# output 50 to 100 µM

# input Using the record for N=c1ccc(-c2ccccc2)nn1CCCCCCCC(=O)Nc1ccc(-c2ccccc2)nn1 [MW01-086B] , report its IC50.
# output > 100 µM

Attention now shifts to the item below.
# input Value lookup for IC50; key = N=c1ccc(-c2ccccc2)nn1CCCCCCCCCCC(=O)Nc1ccc(-c2ccccc2)nn1 [MW01-125AZ]
# output 20 to 50 µM

Provenance of the data: patent US7888357B2
